assay: Half life in human liver microsomes at 2 uM; assay type: ADME, Microsome
Reported metric: half-life at 2 µM (h)

(1) CC(C)N(c1ccc(Oc2ncccc2C(F)(F)F)cc1C(=O)O)C(=O)[C@H]1CC[C@H](C)CC1
(2) Cc1ccc(Cn2cnc(=O)c3cc(Oc4ncccc4C(F)(F)F)ccc32)c(F)c1
(3) O=c1ncn(Cc2c(F)cc(F)cc2F)c2ccc(Oc3ncccc3C(F)(F)F)cc12
Prompt: Falling order of half-life at 2 µM, please. Answer by naming the labels in the order asked.
Completion: 3, 1, 2
(3: 2.05 h, 1: 1.15 h, 2: 0.75 h)

###

assay: Half life in rat liver microsomes at 2 uM; format: ADME, Microsome
Reported metric: half-life at 2 µM (min)

Solved cases below.
Molecular string | Unit of measure | half-life at 2 µM
O=c1ncn(Cc2c(F)cc(F)cc2F)c2ccc(Oc3cccnc3C(F)(F)F)cc12 | min | 22
CC(C)N(c1ccc(Oc2ncccc2C(F)(F)F)cc1C(=O)O)C(=O)[C@H]1CC[C@H](C)CC1 | min | 60

(P) O=c1ncn(Cc2c(F)cc(F)cc2F)c2ccc(Oc3ncccc3C(F)(F)F)cc12
(Q) O=c1ncn(Cc2ccc(Br)cc2F)c2ccc(Oc3ncccc3C(F)(F)F)cc12
Prompt: Compare reported half-life at 2 µM values for P and Q . Which is lower? Kindly give the label for the entry you pick.
Completion: P
(P: 38 min, Q: 60 min)

###

experiment: Permeability across apical to basolateral side in human Caco2 cells at 10 uM; type: ADME, cell-based; settings: Caco-2, read-out: permeability
Reported metric: Papp A→B at 10 µM (×10⁻⁶ cm/s)

Molecular string | Reported metric | Readout value
COc1ccnc(Oc2ccc3c(c2)c(=O)ncn3Cc2ccc(F)cc2F)c1C(F)(F)F | Papp A→B at 10 µM | 11
O=c1ncn(Cc2c(F)cc(F)cc2F)c2ccc(Oc3cccnc3C(F)(F)F)cc12 | Papp A→B at 10 µM | 11
CC(C)N(c1ccc(Oc2ccccc2C(F)(F)F)cc1C(=O)O)C(=O)[C@H]1CC[C@H](C)CC1 | Papp A→B at 10 µM | 17
COc1ccnc(Oc2ccc3c(c2)c(=O)ncn3Cc2c(F)cc(F)cc2F)c1C(F)(F)F | Papp A→B at 10 µM | 7.9
O=c1ncn(Cc2ccc(F)cc2F)c2ccc(Oc3ncccc3C(F)(F)F)cc12 | Papp A→B at 10 µM | 13
CC(C)N(c1ccc(Oc2ncccc2C(F)(F)F)cc1C(=O)O)C(=O)[C@H]1CC[C@H](C)CC1 | Papp A→B at 10 µM | 19
O=c1ncn(Cc2ccc(Br)cc2F)c2ccc(Oc3ncccc3C(F)(F)F)cc12 | Papp A→B at 10 µM | 7.1

(1) Cc1ccc(Cn2cnc(=O)c3cc(Oc4ncccc4C(F)(F)F)ccc32)c(F)c1
(2) O=c1ncn(Cc2c(F)cc(F)cc2F)c2ccc(Oc3ncccc3C(F)(F)F)cc12
Prompt: // max by Papp A→B at 10 µM over [ 1 , 2 ] Respond with the label that goes with your answer.
Completion: 2
(2: 12 ×10⁻⁶ cm/s, 1: 8.4 ×10⁻⁶ cm/s)

###

experiment: Half life in rat liver microsomes at 2 uM; assay type: ADME, Microsome
Reported metric: half-life at 2 µM (min)

Example entries begin here.
Molecular string | Unit of measure | half-life at 2 µM
CC(C)N(c1ccc(Oc2ccccc2C(F)(F)F)cc1C(=O)O)C(=O)[C@H]1CC[C@H](C)CC1 | min | 92
O=c1ncn(Cc2ccc(F)cc2F)c2ccc(Oc3ncccc3C(F)(F)F)cc12 | min | 31
Cc1ccc(Cn2cnc(=O)c3cc(Oc4ncccc4C(F)(F)F)ccc32)c(F)c1 | min | 15

(1) COc1ccnc(Oc2ccc3c(c2)c(=O)ncn3Cc2ccc(F)cc2F)c1C(F)(F)F
(2) COc1ccnc(Oc2ccc3c(c2)c(=O)ncn3Cc2c(F)cc(F)cc2F)c1C(F)(F)F
Prompt: // pick min by half-life at 2 µM: 1 , 2 Lab log: write the label of the selected item as the result.
Completion: 2
(2: 15 min, 1: 26 min)

###

assay: Lipophilicity, log D of the compound at pH 7.4; type: physicochemical; conditions: buffer
Reported metric: logD

(I) O=c1ncn(Cc2c(F)cc(F)cc2F)c2ccc(Oc3cnccc3C(F)(F)F)cc12
(II) COc1ccc2c(c1)c(=O)ncn2Cc1ccc(F)cc1F
Prompt: Between the two listed entries I and II , which has its logD at the higher number? Please respond with the label that marks your chosen entry.
Completion: I

###

assay: Half life in human liver microsomes at 2 uM; type: ADME, Microsome
Reported metric: half-life at 2 µM (h)

(A) COc1ccnc(Oc2ccc3c(c2)c(=O)ncn3Cc2ccc(F)cc2F)c1C(F)(F)F
(B) CC(C)N(c1ccc(Oc2ccccc2C(F)(F)F)cc1C(=O)O)C(=O)[C@H]1CC[C@H](C)CC1
Prompt: When A and B are compared, which has the higher number for half-life at 2 µM? Indicate your choice by writing its label.
Completion: B

###

test: Lipophilicity, log D of the compound at pH 7.4; assay type: physicochemical; conditions: buffer
Reported metric: logD

Known logD results, listed for orientation:
Molecular string | logD
O=c1ncn(Cc2c(F)cc(F)cc2F)c2ccc(Oc3ccccc3C(F)(F)F)cc12 | 4.2
O=c1ncn(CC2CCCC2)c2ccc(Oc3ncccc3C(F)(F)F)cc12 | 3.3
O=c1ncn(Cc2c(F)cc(F)cc2F)c2ccc(Oc3ncccc3C(F)(F)F)cc12 | 3.3
O=c1ncn(Cc2c(F)cc(F)cc2F)c2ccc(Oc3ccccc3)cc12 | 3.2
O=c1ncn(Cc2ccc(F)cc2F)c2cc(F)c(Oc3ncccc3C(F)(F)F)cc12 | 3.9
Cc1ccc(Cn2cnc(=O)c3cc(Oc4ncccc4C(F)(F)F)ccc32)c(F)c1 | 3.8
COc1ccnc(Oc2ccc3c(c2)c(=O)ncn3Cc2ccc(F)cc2F)c1C(F)(F)F | 3.5
O=c1ncn(Cc2c(F)cc(F)cc2F)c2ccc(Oc3cccnc3C(F)(F)F)cc12 | 2.9
O=c1ncn(Cc2ccc(F)cc2F)c2ccc(Oc3ccncc3C(F)(F)F)cc12 | 3
COc1ccnc(Oc2ccc3c(c2)c(=O)ncn3Cc2c(F)cc(F)cc2F)c1C(F)(F)F | 3.3

(I) Cc1ccc(Cn2cnc(=O)c3cc(Oc4ncccc4C(F)(F)F)ccc32)cc1
(II) O=c1nc[nH]c2ccc(Oc3ncccc3C(F)(F)F)cc12
Prompt: Lab notebook, comparison: I versus II , higher logD goes to which? Kindly state the label of the option you pick.
Completion: I
(I: 3.7, II: 2.5)

###

test: Half life in human liver microsomes at 2 uM; type: ADME, Microsome
Reported metric: half-life at 2 µM (h)

Molecular string | Reported metric | Readout value
COc1ccnc(Oc2ccc3c(c2)c(=O)ncn3Cc2c(F)cc(F)cc2F)c1C(F)(F)F | half-life at 2 µM | 1.4
O=c1ncn(Cc2ccc(F)cc2F)c2ccc(Oc3ncccc3C(F)(F)F)cc12 | half-life at 2 µM | 1.83
O=c1ncn(Cc2ccc(Br)cc2F)c2ccc(Oc3ncccc3C(F)(F)F)cc12 | half-life at 2 µM | 1.55
